B1: TPR 5TU (parent)
chain: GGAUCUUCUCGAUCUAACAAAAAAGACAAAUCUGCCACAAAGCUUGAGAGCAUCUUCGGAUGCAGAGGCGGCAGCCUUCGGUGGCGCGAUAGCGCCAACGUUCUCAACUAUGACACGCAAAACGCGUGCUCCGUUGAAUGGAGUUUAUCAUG

# Variants of: B1
# MEASUREMENT_PROTOCOL: polymerase ribozyme fitness, log enrichment relative to wild type (log ratio); higher = more active; in vitro selection for triplet polymerase activity
Fewer inactive variants are shown than the library holds.
// values below are reported polymerase ribozyme fitness (log ratio)
RECORDED_METRIC: polymerase ribozyme fitness (log ratio)

[
  {
    "VARIANT_DESCRIPTOR": "U45C U56A A91G U111A",
    "RECORDED_METRIC": "polymerase ribozyme fitness (log ratio)",
    "RESULT_QUALIFIER": "≤",
    "NUMERIC_VALUE": -4.2
  },
  {
    "VARIANT_DESCRIPTOR": "A24U U61A",
    "RECORDED_METRIC": "polymerase ribozyme fitness (log ratio)",
    "RESULT_QUALIFIER": "=",
    "NUMERIC_VALUE": -1.72
  },
  {
    "VARIANT_DESCRIPTOR": "C54U C87G",
    "RECORDED_METRIC": "polymerase ribozyme fitness (log ratio)",
    "RESULT_QUALIFIER": "≤",
    "NUMERIC_VALUE": -4.2
  },
  {
    "VARIANT_DESCRIPTOR": "A73G C85A",
    "RECORDED_METRIC": "polymerase ribozyme fitness (log ratio)",
    "RESULT_QUALIFIER": "=",
    "NUMERIC_VALUE": -1.22
  },
  {
    "VARIANT_DESCRIPTOR": "A30C C95U",
    "RECORDED_METRIC": "polymerase ribozyme fitness (log ratio)",
    "RESULT_QUALIFIER": "=",
    "NUMERIC_VALUE": -4.11
  },
  {
    "VARIANT_DESCRIPTOR": "C57U G59A G67C G94C",
    "RECORDED_METRIC": "polymerase ribozyme fitness (log ratio)",
    "RESULT_QUALIFIER": "≤",
    "NUMERIC_VALUE": -4.2
  },
  {
    "VARIANT_DESCRIPTOR": "A21C U148A",
    "RECORDED_METRIC": "polymerase ribozyme fitness (log ratio)",
    "RESULT_QUALIFIER": "=",
    "NUMERIC_VALUE": -3.11
  },
  {
    "VARIANT_DESCRIPTOR": "U45G G92U C103A U104A",
    "RECORDED_METRIC": "polymerase ribozyme fitness (log ratio)",
    "RESULT_QUALIFIER": "≤",
    "NUMERIC_VALUE": -4.2
  },
  {
    "VARIANT_DESCRIPTOR": "U13G A21U A22C U82G G92U A98C C116U",
    "RECORDED_METRIC": "polymerase ribozyme fitness (log ratio)",
    "RESULT_QUALIFIER": "=",
    "NUMERIC_VALUE": -1.59
  },
  {
    "VARIANT_DESCRIPTOR": "A41C U56A C85A G117A G140A",
    "RECORDED_METRIC": "polymerase ribozyme fitness (log ratio)",
    "RESULT_QUALIFIER": "≤",
    "NUMERIC_VALUE": -4.2
  },
  {
    "VARIANT_DESCRIPTOR": "C35U G124U",
    "RECORDED_METRIC": "polymerase ribozyme fitness (log ratio)",
    "RESULT_QUALIFIER": "=",
    "NUMERIC_VALUE": -1.25
  },
  {
    "VARIANT_DESCRIPTOR": "C18G A26U A47U G67C C105G U146A C149G",
    "RECORDED_METRIC": "polymerase ribozyme fitness (log ratio)",
    "RESULT_QUALIFIER": "≤",
    "NUMERIC_VALUE": -4.2
  },
  {
    "VARIANT_DESCRIPTOR": "C35U A52C C123U",
    "RECORDED_METRIC": "polymerase ribozyme fitness (log ratio)",
    "RESULT_QUALIFIER": "=",
    "NUMERIC_VALUE": -1.31
  },
  {
    "VARIANT_DESCRIPTOR": "U4A A26G A49C A107G",
    "RECORDED_METRIC": "polymerase ribozyme fitness (log ratio)",
    "RESULT_QUALIFIER": "≤",
    "NUMERIC_VALUE": -4.2
  },
  {
    "VARIANT_DESCRIPTOR": "U7C A19U C35U A37G U55G C76G G86A G88U C103G G124A",
    "RECORDED_METRIC": "polymerase ribozyme fitness (log ratio)",
    "RESULT_QUALIFIER": "≤",
    "NUMERIC_VALUE": -4.2
  },
  {
    "VARIANT_DESCRIPTOR": "A49G U55A A73G",
    "RECORDED_METRIC": "polymerase ribozyme fitness (log ratio)",
    "RESULT_QUALIFIER": "=",
    "NUMERIC_VALUE": -3.1
  },
  {
    "VARIANT_DESCRIPTOR": "U4A G11A A26C A60G G84U G126U C149G",
    "RECORDED_METRIC": "polymerase ribozyme fitness (log ratio)",
    "RESULT_QUALIFIER": "≤",
    "NUMERIC_VALUE": -4.2
  },
  {
    "VARIANT_DESCRIPTOR": "C10U C103G C132U",
    "RECORDED_METRIC": "polymerase ribozyme fitness (log ratio)",
    "RESULT_QUALIFIER": "≤",
    "NUMERIC_VALUE": -4.2
  },
  {
    "VARIANT_DESCRIPTOR": "G94U U104C G117U U134A",
    "RECORDED_METRIC": "polymerase ribozyme fitness (log ratio)",
    "RESULT_QUALIFIER": "=",
    "NUMERIC_VALUE": -2.96
  },
  {
    "VARIANT_DESCRIPTOR": "G59C U82G C85A U102G",
    "RECORDED_METRIC": "polymerase ribozyme fitness (log ratio)",
    "RESULT_QUALIFIER": "=",
    "NUMERIC_VALUE": -4.09
  },
  {
    "VARIANT_DESCRIPTOR": "G11A C38U G59C A64U G81A C93U G94C",
    "RECORDED_METRIC": "polymerase ribozyme fitness (log ratio)",
    "RESULT_QUALIFIER": "≤",
    "NUMERIC_VALUE": -4.2
  },
  {
    "VARIANT_DESCRIPTOR": "A97U G117U",
    "RECORDED_METRIC": "polymerase ribozyme fitness (log ratio)",
    "RESULT_QUALIFIER": "=",
    "NUMERIC_VALUE": -1.25
  }
]
